Reference source: ChEMBL document CHEMBL5291721

Target: Glucocorticoid receptor (Homo sapiens, UniProt P04150); further: assay procedure not described here
Sequence (P04150 whole entry): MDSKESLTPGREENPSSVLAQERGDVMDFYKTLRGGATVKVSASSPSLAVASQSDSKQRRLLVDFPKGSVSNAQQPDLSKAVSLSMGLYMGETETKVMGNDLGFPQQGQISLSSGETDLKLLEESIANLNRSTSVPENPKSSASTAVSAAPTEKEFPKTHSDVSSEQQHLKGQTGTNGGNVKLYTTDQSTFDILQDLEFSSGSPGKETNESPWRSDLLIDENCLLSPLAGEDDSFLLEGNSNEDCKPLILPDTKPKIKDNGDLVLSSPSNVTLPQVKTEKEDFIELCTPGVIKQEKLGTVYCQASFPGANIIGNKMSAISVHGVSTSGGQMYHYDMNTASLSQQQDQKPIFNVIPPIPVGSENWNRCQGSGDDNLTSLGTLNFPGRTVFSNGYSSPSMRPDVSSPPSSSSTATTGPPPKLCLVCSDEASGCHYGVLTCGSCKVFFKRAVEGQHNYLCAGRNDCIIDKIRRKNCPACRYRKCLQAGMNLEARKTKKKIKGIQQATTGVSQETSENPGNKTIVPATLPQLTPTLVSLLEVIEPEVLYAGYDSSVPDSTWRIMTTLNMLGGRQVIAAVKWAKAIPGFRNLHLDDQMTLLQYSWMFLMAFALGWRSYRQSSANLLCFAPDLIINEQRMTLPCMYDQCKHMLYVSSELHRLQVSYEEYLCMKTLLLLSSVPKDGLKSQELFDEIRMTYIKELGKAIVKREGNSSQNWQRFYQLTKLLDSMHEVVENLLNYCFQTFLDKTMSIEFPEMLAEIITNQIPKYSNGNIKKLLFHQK
attributeMeasured: AC50

[[record]]
compound = "O=C(O)CCn1c2c(c3ccccc31)C[C@H](NS(=O)(=O)c1ccc(F)cc1)CC2"
targetsystem = "Glucocorticoid receptor (Homo sapiens, UniProt P04150)"
observedresult = "> 30 µM"

[[record]]
compound = "C#CCN(C)[C@H](C)Cc1ccccc1"
targetsystem = "Glucocorticoid receptor (Homo sapiens, UniProt P04150)"
observedresult = "> 10 µM"

[[record]]
compound = "COC(=O)N[C@H](C(=O)N[C@@H](Cc1ccccc1)[C@@H](O)CN(Cc1ccc(-c2ccccn2)cc1)NC(=O)[C@@H](NC(=O)OC)C(C)(C)C)C(C)(C)C"
targetsystem = "Glucocorticoid receptor (Homo sapiens, UniProt P04150)"
observedresult = "> 30 µM"

[[record]]
compound = "Nc1nc2ccc(OC(F)(F)F)cc2s1"
targetsystem = "Glucocorticoid receptor (Homo sapiens, UniProt P04150)"
observedresult = "> 30 µM"

[[record]]
compound = "CN1CCc2cccc3c2[C@H]1Cc1ccc(O)c(O)c1-3"
targetsystem = "Glucocorticoid receptor (Homo sapiens, UniProt P04150)"
observedresult = "> 30 µM"

[[record]]
compound = "Nc1nc(N)c2nc(-c3ccccc3)c(N)nc2n1"
targetsystem = "Glucocorticoid receptor (Homo sapiens, UniProt P04150)"
observedresult = "> 30 µM"

[[record]]
compound = "COc1c(C)c2c(c(O)c1C/C=C(\\C)CCC(=O)OCCN1CCOCC1)C(=O)OC2 [MYCOPHENOLATE MOFETIL]"
targetsystem = "Glucocorticoid receptor (Homo sapiens, UniProt P04150)"
observedresult = "> 30 µM"

[[record]]
compound = "Nc1ncnc2c1ncn2[C@@H]1O[C@H](COP(=O)(O)O)[C@@H](O)[C@H]1O [ADENOSINE PHOSPHATE]"
targetsystem = "Glucocorticoid receptor (Homo sapiens, UniProt P04150)"
observedresult = "> 30 µM"

[[record]]
compound = "O=P(O)(O)C(O)(Cc1cccnc1)P(=O)(O)O"
targetsystem = "Glucocorticoid receptor (Homo sapiens, UniProt P04150)"
observedresult = "> 30 µM"

[[record]]
compound = "CCCCOc1cc(C(=O)NCCN(CC)CC)c2ccccc2n1"
targetsystem = "Glucocorticoid receptor (Homo sapiens, UniProt P04150)"
observedresult = "> 10 µM"


###

target: Sodium-dependent noradrenaline transporter (Homo sapiens); further: assay procedure not described here
Sequence (P23975 whole entry): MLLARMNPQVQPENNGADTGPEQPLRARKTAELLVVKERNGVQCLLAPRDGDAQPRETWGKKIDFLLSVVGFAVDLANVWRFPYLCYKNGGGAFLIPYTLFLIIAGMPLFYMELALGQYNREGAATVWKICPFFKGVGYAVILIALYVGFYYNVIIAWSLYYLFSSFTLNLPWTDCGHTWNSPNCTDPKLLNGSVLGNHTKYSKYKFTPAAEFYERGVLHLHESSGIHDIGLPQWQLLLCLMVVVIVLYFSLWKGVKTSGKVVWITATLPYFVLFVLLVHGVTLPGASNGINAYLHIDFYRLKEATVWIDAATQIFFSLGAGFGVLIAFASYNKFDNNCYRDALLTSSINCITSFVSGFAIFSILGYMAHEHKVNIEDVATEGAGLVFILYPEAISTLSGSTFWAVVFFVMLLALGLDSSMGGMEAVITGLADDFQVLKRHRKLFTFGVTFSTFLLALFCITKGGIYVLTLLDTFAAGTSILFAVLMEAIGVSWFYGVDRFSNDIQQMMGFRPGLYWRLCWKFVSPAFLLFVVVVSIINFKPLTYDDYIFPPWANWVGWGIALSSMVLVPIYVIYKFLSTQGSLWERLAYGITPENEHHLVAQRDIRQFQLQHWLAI
attributeMeasured: AC50

[[record]]
molecule = "OC[C@@H](O)[C@@H](O)[C@H](O)[C@H](O)CO [MANNITOL]"
targetsystem = "Sodium-dependent noradrenaline transporter (Homo sapiens)"
observedresult = "> 30 µM"

[[record]]
molecule = "CS(=O)(=O)Nc1cc2occ(NC=O)c(=O)c2cc1Oc1ccccc1 [IGURATIMOD]"
targetsystem = "Sodium-dependent noradrenaline transporter (Homo sapiens)"
observedresult = "> 30 µM"

[[record]]
molecule = "CC(=O)OC(C)C[N+](C)(C)C (stereo not drawn) [METHACHOLINE]"
targetsystem = "Sodium-dependent noradrenaline transporter (Homo sapiens)"
observedresult = "> 30 µM"


###

Below, each entry is listed alongside its reported AC50.
Molecular target: Prostaglandin G/H synthase 1 (Rattus norvegicus); further: assay procedure not described here
Sequence (Q63921 whole entry): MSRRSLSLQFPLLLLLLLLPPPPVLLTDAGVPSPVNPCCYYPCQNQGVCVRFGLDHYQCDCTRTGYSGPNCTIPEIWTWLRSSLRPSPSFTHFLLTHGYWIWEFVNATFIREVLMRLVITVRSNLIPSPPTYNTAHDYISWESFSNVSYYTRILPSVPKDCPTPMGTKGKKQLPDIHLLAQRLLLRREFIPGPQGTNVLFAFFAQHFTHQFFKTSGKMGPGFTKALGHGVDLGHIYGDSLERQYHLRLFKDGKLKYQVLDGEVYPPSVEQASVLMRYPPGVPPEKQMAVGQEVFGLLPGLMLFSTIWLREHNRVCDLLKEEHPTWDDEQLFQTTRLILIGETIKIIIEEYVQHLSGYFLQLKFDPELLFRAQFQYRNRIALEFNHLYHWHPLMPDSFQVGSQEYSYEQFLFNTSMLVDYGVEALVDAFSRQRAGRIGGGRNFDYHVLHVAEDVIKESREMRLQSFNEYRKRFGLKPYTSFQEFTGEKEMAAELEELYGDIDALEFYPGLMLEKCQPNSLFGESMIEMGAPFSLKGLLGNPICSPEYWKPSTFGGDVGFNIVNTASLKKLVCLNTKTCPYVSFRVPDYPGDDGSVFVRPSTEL
Assay type: functional
attributeMeasured: AC50

[[record]]
compound = "C[N+](C)(C)CC(=O)O"
observedresult = "> 30 µM"

[[record]]
compound = "CN1CC[C@]23CCCC[C@H]2[C@H]1Cc1ccc(O)cc13"
observedresult = "> 10 µM"

[[record]]
compound = "CCCCCCCCOc1ccccc1C(=O)Nc1ccc(C(=O)OCC[N+](C)(CC)CC)cc1 [OTILONIUM BROMIDE]"
observedresult = "14 µM"

[[record]]
compound = "COC(=O)C1=C(C)NC(C)=C(C(=O)OC(C)C)C1c1cccc2nonc12 (configuration not stated)"
observedresult = "> 30 µM"

[[record]]
compound = "NS(=O)(=O)c1cc(Cl)c(Cl)c(S(N)(=O)=O)c1 [DICHLORPHENAMIDE]"
observedresult = "> 10 µM"

[[record]]
compound = "N[C@@H](CSCC(=O)O)C(=O)O"
observedresult = "> 30 µM"

[[record]]
compound = "C[C@H]1O[C@H](O[C@H]2[C@H](O)[C@@H](O)[C@@H](O[C@H]3[C@H](O)[C@@H](O)C(O)O[C@@H]3CO)O[C@@H]2CO)[C@H](O)[C@@H](O)[C@@H]1N[C@H]1C=C(CO)[C@@H](O)[C@H](O)[C@H]1O (some centres not stated)"
observedresult = "> 30 µM"


###

// Glutamate receptor ionotropic, NMDA 1 (Rattus norvegicus) AC50 records
attributeMeasured: AC50

[[record]]
molecule = "[H]/N=C(/N)c1ccc(NCc2nc3cc(C(=O)N(CCC(=O)O)c4ccccn4)ccc3n2C)cc1"
targetsystem = "Glutamate receptor ionotropic, NMDA 1 (Rattus norvegicus)"
attributemeasured = "AC50"
observedresult = "> 30 µM"

[[record]]
molecule = "O=C(Cn1ccnc1[N+](=O)[O-])NCc1ccccc1"
targetsystem = "Glutamate receptor ionotropic, NMDA 1 (Rattus norvegicus)"
attributemeasured = "AC50"
observedresult = "> 30 µM"

[[record]]
molecule = "CC(N)Cc1ccccc1 (stereo not given)"
targetsystem = "Glutamate receptor ionotropic, NMDA 1 (Rattus norvegicus)"
attributemeasured = "AC50"
observedresult = "> 10 µM"

[[record]]
molecule = "Cc1cc2c(OCC(CNC(C)(C)C)OC(=O)c3ccccc3)cccc2[nH]1 (stereo not given)"
targetsystem = "Glutamate receptor ionotropic, NMDA 1 (Rattus norvegicus)"
attributemeasured = "AC50"
observedresult = "> 30 µM"

[[record]]
molecule = "CC(C(=O)O)c1ccc(N2CC=CC2)c(Cl)c1 (stereo not given)"
targetsystem = "Glutamate receptor ionotropic, NMDA 1 (Rattus norvegicus)"
attributemeasured = "AC50"
observedresult = "> 10 µM"

[[record]]
molecule = "CCN(CC)CCNC(=O)c1cc(Cl)c(N)cc1OC [METOCLOPRAMIDE]"
targetsystem = "Glutamate receptor ionotropic, NMDA 1 (Rattus norvegicus)"
attributemeasured = "AC50"
observedresult = "> 10 µM"

[[record]]
molecule = "Cc1ccc(C(=O)c2cc(O)c(O)c([N+](=O)[O-])c2)cc1"
targetsystem = "Glutamate receptor ionotropic, NMDA 1 (Rattus norvegicus)"
attributemeasured = "AC50"
observedresult = "> 10 µM"

[[record]]
molecule = "O=C1NCCN1CCN1CCC(c2cn(-c3ccc(F)cc3)c3ccc(Cl)cc23)CC1"
targetsystem = "Glutamate receptor ionotropic, NMDA 1 (Rattus norvegicus)"
attributemeasured = "AC50"
observedresult = "> 30 µM"

[[record]]
molecule = "CC(C)[N+](C)(CCC(C(N)=O)(c1ccccc1)c1ccccc1)C(C)C [ISOPROPAMIDE]"
targetsystem = "Glutamate receptor ionotropic, NMDA 1 (Rattus norvegicus)"
attributemeasured = "AC50"
observedresult = "> 10 µM"

[[record]]
molecule = "CCOC(=O)[C@H](CCc1ccccc1)N[C@H]1CCCN2CCC[C@@H](C(=O)O)N2C1=O"
targetsystem = "Glutamate receptor ionotropic, NMDA 1 (Rattus norvegicus)"
attributemeasured = "AC50"
observedresult = "> 30 µM"

[[record]]
molecule = "NC(=O)c1ncn([C@@H]2O[C@H](CO)[C@@H](O)[C@H]2O)c1O"
targetsystem = "Glutamate receptor ionotropic, NMDA 1 (Rattus norvegicus)"
attributemeasured = "AC50"
observedresult = "> 30 µM"

[[record]]
molecule = "C[N+](C)(C)CCOC(N)=O"
targetsystem = "Glutamate receptor ionotropic, NMDA 1 (Rattus norvegicus)"
attributemeasured = "AC50"
observedresult = "> 10 µM"

[[record]]
molecule = "Cc1cccc(C)c1NC(=O)C1CCCCN1C (stereo not given) [MEPIVACAINE]"
targetsystem = "Glutamate receptor ionotropic, NMDA 1 (Rattus norvegicus)"
attributemeasured = "AC50"
observedresult = "> 30 µM"

[[record]]
molecule = "Nc1nc2ccc(OC(F)(F)F)cc2s1"
targetsystem = "Glutamate receptor ionotropic, NMDA 1 (Rattus norvegicus)"
attributemeasured = "AC50"
observedresult = "> 30 µM"

[[record]]
molecule = "C[C@@H]1O[C@@H]1P(=O)(O)O"
targetsystem = "Glutamate receptor ionotropic, NMDA 1 (Rattus norvegicus)"
attributemeasured = "AC50"
observedresult = "> 10 µM"

[[record]]
molecule = "O=C(O)CCn1c2c(c3ccccc31)C[C@H](NS(=O)(=O)c1ccc(F)cc1)CC2"
targetsystem = "Glutamate receptor ionotropic, NMDA 1 (Rattus norvegicus)"
attributemeasured = "AC50"
observedresult = "> 10 µM"

[[record]]
molecule = "CN(CCCN1c2ccccc2CCc2ccccc21)CC(=O)c1ccc(Cl)cc1"
targetsystem = "Glutamate receptor ionotropic, NMDA 1 (Rattus norvegicus)"
attributemeasured = "AC50"
observedresult = "25 µM"

[[record]]
molecule = "Cc1ccc(-c2nc3ccc(C)cn3c2CC(=O)N(C)C)cc1"
targetsystem = "Glutamate receptor ionotropic, NMDA 1 (Rattus norvegicus)"
attributemeasured = "AC50"
observedresult = "> 30 µM"

[[record]]
molecule = "CC(C)C(=O)Nc1ccc([N+](=O)[O-])c(C(F)(F)F)c1 [FLUTAMIDE]"
targetsystem = "Glutamate receptor ionotropic, NMDA 1 (Rattus norvegicus)"
attributemeasured = "AC50"
observedresult = "> 10 µM"

[[record]]
molecule = "CC(C)NCC(O)COc1ccc(COCCOC(C)C)cc1 (stereo not given)"
targetsystem = "Glutamate receptor ionotropic, NMDA 1 (Rattus norvegicus)"
attributemeasured = "AC50"
observedresult = "> 10 µM"

[[record]]
molecule = "O=C(CCCCC(=O)Nc1c(I)cc(I)c(C(=O)O)c1I)Nc1c(I)cc(I)c(C(=O)O)c1I [IODIPAMIDE]"
targetsystem = "Glutamate receptor ionotropic, NMDA 1 (Rattus norvegicus)"
attributemeasured = "AC50"
observedresult = "> 10 µM"

[[record]]
molecule = "COc1c(N2CCNC(C)C2)c(F)cc2c(=O)c(C(=O)O)cn(C3CC3)c12 (stereo not given)"
targetsystem = "Glutamate receptor ionotropic, NMDA 1 (Rattus norvegicus)"
attributemeasured = "AC50"
observedresult = "> 10 µM"

[[record]]
molecule = "CCc1ccc(CCOc2ccc(CC3SC(=O)NC3=O)cc2)nc1 (stereo not given)"
targetsystem = "Glutamate receptor ionotropic, NMDA 1 (Rattus norvegicus)"
attributemeasured = "AC50"
observedresult = "> 10 µM"

[[record]]
molecule = "CC1=CC(=O)c2ccccc2C1=O"
targetsystem = "Glutamate receptor ionotropic, NMDA 1 (Rattus norvegicus)"
attributemeasured = "AC50"
observedresult = "> 10 µM"

[[record]]
molecule = "C#CCN[C@@H]1CCc2ccccc21"
targetsystem = "Glutamate receptor ionotropic, NMDA 1 (Rattus norvegicus)"
attributemeasured = "AC50"
observedresult = "> 30 µM"

